Assayed target: Man(a1-2)Man(a1-2)Man(a1-3)Man
Procedure text: glycan array binding signal (z-score within array); higher = stronger binding
Run conditions: glycan notation: IUPAC condensed, linker removed
This is one part of a sample in which the strongest signals are shown more often than they occur.
What glycan array binding signal (z-score) was measured for each of the following?

# input binder: SP15308A-bot-339-19-339 (Bacteroides ovatus) (protein) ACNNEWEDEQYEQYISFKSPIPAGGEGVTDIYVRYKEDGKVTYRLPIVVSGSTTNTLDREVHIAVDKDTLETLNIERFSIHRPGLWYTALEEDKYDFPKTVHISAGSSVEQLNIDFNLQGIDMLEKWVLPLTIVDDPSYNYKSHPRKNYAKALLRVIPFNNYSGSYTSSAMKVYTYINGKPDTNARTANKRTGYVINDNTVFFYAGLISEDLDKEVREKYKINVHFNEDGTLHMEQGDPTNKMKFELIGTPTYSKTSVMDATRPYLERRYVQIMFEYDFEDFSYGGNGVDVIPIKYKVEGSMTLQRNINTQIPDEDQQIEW ; wanted: its glycan array binding signal (z-score)
-0.468

# iterate: CLEC-6 (Homo sapiens), Q8WXI8 (protein) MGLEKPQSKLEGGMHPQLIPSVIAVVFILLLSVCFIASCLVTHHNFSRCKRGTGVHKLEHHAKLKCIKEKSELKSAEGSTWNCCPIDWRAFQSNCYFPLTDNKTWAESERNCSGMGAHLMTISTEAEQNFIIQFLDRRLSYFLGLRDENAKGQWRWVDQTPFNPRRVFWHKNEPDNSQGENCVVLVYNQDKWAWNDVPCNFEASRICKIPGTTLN
1.94

# iterate: TbCVNHOa (Tuber borchii), Q5MK11 (protein) GSHIGPYMSYADSSRNAVLTNGGRTLRAECRNADGNWVTSELDLDTCIGNPNGFLGWGMQNFSHSSEDIKLEEGGRKLTCRPKTVDGGFRERQGIDLNRIQNVNGRLVFQ
3.86
